Source of measurements: patent US5654411A

// Staphylococcus aureus 1775 MIC records

Fetch value of MIC on Staphylococcus aureus 1775 for "CC[C@H]1OC(=O)[C@H](C)[C@@H](O[C@H]2C[C@@](C)(OC)C[C@H](C)O2)[C@H](C)[C@@H](O[C@@H]2O[C@H](C)C[C@H](N(C)CC)[C@H]2O)[C@@]2(C)C[C@H](C)C(O2)[C@H](C)[C@@H](O)[C@]1(C)O" . > 100 µg/mL

Fetch value of MIC on Staphylococcus aureus 1775 for "CC[C@H]1OC(=O)[C@H](C)[C@@H](O[C@H]2C[C@@](C)(OC)C[C@H](C)O2)[C@H](C)[C@@H](O[C@@H]2O[C@H](C)C[C@H](N(C)CC)[C@H]2O)[C@@]2(C)C[C@@H](C)C(O2)[C@H](C)[C@@H](O)[C@]1(C)O" . > 100 µg/mL

Fetch value of MIC on Staphylococcus aureus 1775 for "CC[C@H]1OC(=O)[C@H](C)[C@@H](O[C@H]2C[C@@](C)(OC)[C@@H](O)[C@H](C)O2)[C@H](C)[C@@H](O[C@@H]2O[C@H](C)C[C@H](N(C)C)[C@H]2O)[C@](C)(O)C[C@@H](C)C(=O)[C@H](C)[C@@H](O)[C@]1(C)O" . > 100 µg/mL

Fetch value of MIC on Staphylococcus aureus 1775 for "CC[C@H]1OC(=O)[C@H](C)[C@@H](O[C@H]2C[C@@](C)(OC)C[C@H](C)O2)[C@H](C)[C@@H](O[C@@H]2O[C@H](C)C[C@H](N(C)CC)[C@H]2O)[C@@]2(C)CC(C)=C(O2)[C@H](C)[C@@H](O)[C@H]1C" . > 100 µg/mL

---

Tested on: smooth muscle strips isolated from rabbit small intestine
test-description: Induction of in vitro rabbit duodenal smooth muscle contraction
condition-details: relative to erythromycin A = 1.0
experimental-readout: Relative Potency
Answer with the value's number alone.

Recall and state the measured Relative Potency for "C#CC[N+](C)(C)[C@H]1C[C@@H](C)O[C@@H](O[C@@H]2[C@@H](C)[C@H](O[C@H]3C[C@@](C)(OC)C[C@H](C)O3)[C@@H](C)C(=O)O[C@H](CC)[C@@](C)(O)[C@H](O)[C@@H](C)C3O[C@]2(C)C[C@H]3C)[C@@H]1O" . 35

---

Tested on: smooth muscle strips isolated from rabbit small intestine
test-description: Induction of in vitro rabbit duodenal smooth muscle contraction
condition-details: relative to erythromycin A = 1.0
Assignment: determine reported Relative Potency for the given compounds.

Recall and state the measured Relative Potency for CC[C@H]1OC(=O)[C@H](C)[C@@H](O[C@H]2C[C@@](C)(OC)C[C@H](C)O2)[C@H](C)[C@@H](O[C@@H]2O[C@H](C)C[C@H](N(C)CC)[C@H]2O)[C@@]2(C)CC(C)=C(O2)[C@H](C)[C@@H](O)[C@]1(C)O [Example 4] . 199,526

Recall and state the measured Relative Potency for CC[C@H]1OC(=O)[C@H](C)[C@@H](O[C@H]2C[C@@](C)(OC)C[C@H](C)O2)[C@H](C)[C@@H](O[C@@H]2O[C@H](C)C[C@H](NC)[C@H]2O)[C@@]2(C)CC(C)=C(O2)[C@H](C)[C@@H](O)[C@]1(C)O [Example 3] . 7,762

Recall and state the measured Relative Potency for CC[C@H]1OC(=O)[C@H](C)[C@@H](O[C@H]2C[C@@](C)(OC)C[C@H](C)O2)[C@H](C)[C@@H](O[C@@H]2O[C@H](C)C[C@H](N(C)CC)[C@H]2O)[C@@]2(C)CC(C)=C(O2)[C@H](C)[C@@H](O)[C@H]1C [Example 7] . > 8000

Recall and state the measured Relative Potency for CC[C@H]1OC(=O)[C@H](C)[C@@H](O[C@H]2C[C@@](C)(OC)C[C@H](C)O2)[C@H](C)[C@@H](O[C@@H]2O[C@H](C)C[C@H](NC)[C@H]2O)[C@@]2(C)CC(C)=C(O2)[C@H](C)[C@@H](O)[C@H]1C [Example 6] . > 8000
